biological target: CDK1-NanoLuc fusion with CCNB1 in 293T or 293 cells (Homo sapiens, UniProt P06493); construct: host or cells: 293T (ATCC CRL-3216) or 293 (ATCC CRL-1573); experiment: NanoBRET Target Engagement (TE) Intracellular Kinase Assay, CDK1/CCNB1; assay type: cell-based; settings: NanoBRET TE intracellular kinase assay, 2-hour incubation, read-out: NanoBRET-CDK1/B1 IC50
Sequence (P06493 whole entry, the tested form may be a part): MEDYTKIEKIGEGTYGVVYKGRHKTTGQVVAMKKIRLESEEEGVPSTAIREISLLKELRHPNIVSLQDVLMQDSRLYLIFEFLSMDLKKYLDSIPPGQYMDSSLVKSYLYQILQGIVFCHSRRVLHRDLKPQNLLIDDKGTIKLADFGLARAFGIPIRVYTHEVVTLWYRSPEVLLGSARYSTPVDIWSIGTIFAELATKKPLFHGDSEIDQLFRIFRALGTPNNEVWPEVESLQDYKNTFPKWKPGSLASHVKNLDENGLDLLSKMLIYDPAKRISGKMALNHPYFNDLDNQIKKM
Sequence (P14635 whole entry partner, the tested form may be a part): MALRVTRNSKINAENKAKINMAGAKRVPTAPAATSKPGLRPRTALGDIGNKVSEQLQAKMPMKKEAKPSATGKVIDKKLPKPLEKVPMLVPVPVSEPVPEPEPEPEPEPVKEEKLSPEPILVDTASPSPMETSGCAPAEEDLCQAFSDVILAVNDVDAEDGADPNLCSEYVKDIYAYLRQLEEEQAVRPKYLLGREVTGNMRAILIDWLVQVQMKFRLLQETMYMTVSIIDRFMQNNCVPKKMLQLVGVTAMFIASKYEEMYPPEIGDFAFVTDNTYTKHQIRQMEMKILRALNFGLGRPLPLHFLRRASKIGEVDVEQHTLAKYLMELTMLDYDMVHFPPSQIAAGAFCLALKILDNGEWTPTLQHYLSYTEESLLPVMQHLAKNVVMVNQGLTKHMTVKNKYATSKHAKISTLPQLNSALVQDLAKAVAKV
pIC50: −log10 of the molar value.
readout.kind: pIC50

// below: answered compounds
>>> recorded_measurement("CC(C)c1ccc(O[C@@H]2CC[C@H](c3cc(NC(=O)CCc4cccc(O)c4C=O)n[nH]3)C2)nn1 [Compound 14]")
5.77
>>> recorded_measurement("Cc1cc(O)c(C=O)c(O[C@@H](C)C(=O)Nc2cc([C@H]3CC[C@@H](OC(=O)NC(C)C)C3)[nH]n2)c1 [Compound 252]")
7.51
>>> recorded_measurement("COc1cc(O)c(C=O)c(OCC(=O)Nc2cc([C@H]3CC[C@@H](OC(=O)N4CCC[C@@H]4C)C3)[nH]n2)c1 [Compound 245]")
8.40
>>> recorded_measurement("CC(C)NC(=O)O[C@@H]1CC[C@H](c2cc(NC(=O)Cc3ccc(C=O)c(O)c3)n[nH]2)C1 [Compound 4]")
8.15
>>> recorded_measurement("C#Cc1cc(O)c(C=O)c(OCC(=O)Nc2cc([C@H]3CC[C@@H](OC(=O)NC(C)C)C3)[nH]n2)c1 [Compound 99]")
7.67

1: CC(C)NC(=O)O[C@@H]1CC[C@H](c2cc(NC(=O)CCCc3cccc(O)c3C=O)n[nH]2)C1 [Compound 12]
2: CC(C)NC(=O)O[C@@H]1CC[C@H](c2cc(NC(=O)Nc3ccc(O)c(C=O)c3)n[nH]2)C1 [Compound 33]
**Q:** Lab log: flag the item ( 1 or 2 ) with the smaller pIC50 figure. Choose, then provide that item's label.
**A:** 1

###

target: CDK2-NanoLuc fusion with CCNE1 in 293T or 293 cells (Homo sapiens, UniProt P24941); construct: host or cells: 293T (ATCC CRL-3216) or 293 (ATCC CRL-1573); test: NanoBRET Target Engagement (TE) Intracellular Kinase Assay, CDK2/CCNE1; assay type: cell-based; conditions: NanoBRET TE intracellular kinase assay, 2-hour incubation, read-out: NanoBRET-CDK2/E1 IC50
pIC50: −log10 of the molar value.
readout.kind: pIC50

// below: answered compounds
>>> recorded_measurement("COc1cc(O)c(C=O)c(OCC(=O)Nc2cc([C@H]3CC[C@@H](OC(=O)N4CC5CC5C4)C3)[nH]n2)c1 (stereo partly shown)")
8.75
>>> recorded_measurement("COc1cc(O)c(C=O)c(OCC(=O)Nc2cc([C@H]3CC[C@@H](OC(=O)NC45CC(C4)C5)C3)[nH]n2)c1")
8.82
>>> recorded_measurement("CC(C)NC(=O)O[C@@H]1CC[C@H](c2cc(NC(=O)c3cc(OCc4cccc(O)c4C=O)nn3C)n[nH]2)C1")
7.98
>>> recorded_measurement("CCN(CC)N(C)C(=O)O[C@@H]1CC[C@H](c2cc(NC(=O)COc3cc(OC)cc(O)c3C=O)n[nH]2)C1")
8.83
>>> recorded_measurement("COc1cc(O)c(C=O)c(OCC(=O)Nc2cc([C@H]3CC[C@@H](OC(=O)Nc4ccccc4)C3)[nH]n2)c1")
8.02
>>> recorded_measurement("CCCCNC(=O)O[C@@H]1CC[C@H](c2cc(NC(=O)COc3cc(OC)cc(O)c3C=O)n[nH]2)C1")
8.93

a: COc1cc(O)c(C=O)c([C@H]2C[C@@H]2C(=O)Nc2cc([C@H]3CC[C@@H](OC(=O)NC(C)C)C3)[nH]n2)c1 (single isomer, unassigned)
b: C#Cc1cccc(OCC(=O)Nc2cc([C@H]3CC[C@@H](OC(=O)NC(C)C)C3)[nH]n2)c1C=O
c: O=Cc1c(O)cccc1OCC(=O)Nc1cc([C@H]2CC[C@@H](OC(=O)N3CCCC3)C2)[nH]n1
**Q:** # rank by pIC50, ascending (min first) Provide the labels, sequenced as the question asks.
**A:** a, b, c
